Target system: Pan-species-specific antigen Plasmodium Lactate DeHydrogenase (Pan-PLDH) protein
Experiment notes: indirect ELISA at four coating concentrations, KD calculated from half-maximal OD
Metric: Kd (nM)

[
  {
    "Binder": "anti-Pan-PLDH 9G7 monoclonal antibody (antibody, mouse IgG2b, kappa, V domains shown) VH: QVQLQQPGAELVRPGASVKLSCKASGSSFTNYFMNWVKQRPGQGLEWIGMINPSESETRINQKFKDKATLTVDKSSSTAYMQLSSLTAEDSAVYYCAKSGDFYTSYWDYWGQGTTLTVSS VL: DIQLTQSPASLSASVGETVTITCRGSGNLHNYIAWYQQKQGKSPQLLVYNARTIADGVPSRFSGSGSGTQYSLKINSLQPEDFGSYYCQSFWSSYTFGGGTKLEIKR",
    "Metric": "Kd",
    "Readout unit": "nM",
    "Value reported": 0.887
  },
  {
    "Binder": "Mutation 1-34 (antibody, mouse IgG2b, kappa, V domains shown) VH: QVQLQQPGAELVRPGASVKLSCKASGYSFTNYWMNWVKQRPGQGLEWIGMIHPSESETRLNQKFKDKATLTVDKSSSTAYMQLSSLTAEDSAVYYCARSGEFYTYYFDYWGQGTTLTVSS VL: DIQLTQSPASLSASVGETVTITCRGTGNLHNYLAWYQQKQGKSPQLLVYNARTVADGVPSRFSGSGSGTQYSLKINSLQPEDFGSYYCQSFWSTYTFGGGTKLEIKR",
    "Metric": "Kd",
    "Readout unit": "nM",
    "Value reported": 0.565
  },
  {
    "Binder": "Mutation 1-19 (antibody, mouse IgG2b, kappa, V domains shown) VH: QVQLQQPGAELVRPGASVKLSCKASGYSFTNYWMNWVKQRPGQGLEWIGMIHPSDSETRLNQKFKDKATLTVDKSSSTAYMQLSSLTAEDSAVYYCARSGDFYTYYFDYWGQGTTLTVSS VL: DIQLTQSPASLSASVGETVTITCRGSGNIHNYLAWYQQKQGKSPQLLVYNAKTLADGVPSRFSGSGSGTQYSLKINSLQPEDFGSYYCQYFWSTYTFGGGTKLEIKR",
    "Metric": "Kd",
    "Readout unit": "nM",
    "Value reported": 0.329
  },
  {
    "Binder": "Mutation 1-45 (antibody, mouse IgG2b, kappa, V domains shown) VH: QVQLQQPGAELVRPGASVKLSCKASGYSFTNYWMNWVKQRPGQGLEWIGMIHPSESETRINQKFKDKATLTVDKSSSTAYMQLSSLTAEDSAVYYCARSGEFYTYYFDYWGQGTTLTVSS VL: DIQLTQSPASLSASVGETVTITCRGSGNVHNYLAWYQQKQGKSPQLLVYNARTIADGVPSRFSGSGSGTQYSLKINSLQPEDFGSYYCQSFWSTYTFGGGTKLEIKR",
    "Metric": "Kd",
    "Readout unit": "nM",
    "Value reported": 0.415
  },
  {
    "Binder": "Mutation 1-17 (antibody, mouse IgG2b, kappa, V domains shown) VH: QVQLQQPGAELVRPGASVKLSCKASGTSFTNYWMNWVKQRPGQGLEWIGMIHPSESETRVNQKFKDKATLTVDKSSSTAYMQLSSLTAEDSAVYYCAKSGEFYTTYFDYWGQGTTLTVSS VL: DIQLTQSPASLSASVGETVTITCRGTGNIHNYLAWYQQKQGKSPQLLVYNARTVADGVPSRFSGSGSGTQYSLKINSLQPEDFGSYYCQTFWSTYTFGGGTKLEIKR",
    "Metric": "Kd",
    "Readout unit": "nM",
    "Value reported": 0.37
  },
  {
    "Binder": "Mutation 1-7 (antibody, mouse IgG2b, kappa, V domains shown) VH: QVQLQQPGAELVRPGASVKLSCKASGSSFTNYWMNWVKQRPGQGLEWIGMIHPSDSETRLNQKFKDKATLTVDKSSSTAYMQLSSLTAEDSAVYYCARSGDFYTYYFDYWGQGTTLTVSS VL: DIQLTQSPASLSASVGETVTITCRGSGNIHNYLAWYQQKQGKSPQLLVYNAKTVADGVPSRFSGSGSGTQYSLKINSLQPEDFGSYYCQSFWSTYTFGGGTKLEIKR",
    "Metric": "Kd",
    "Readout unit": "nM",
    "Value reported": 0.208
  },
  {
    "Binder": "WT 1-1 (antibody, mouse IgG2b, kappa, V domains shown) VH: QVQLQQPGAELVRPGASVKLSCKASGTSFTNYFMNWVKQRPGQGLEWIGMINPSDSETRINQKFKDKATLTVDKSSSTAYMQLSSLTAEDSAVYYCARSGDFYTSYWDYWGQGTTLTVSS VL: DIQLTQSPASLSASVGETVTITCRGTGNIHNYIAWYQQKQGKSPQLLVYNAKTLADGVPSRFSGSGSGTQYSLKINSLQPEDFGSYYCQTFWSSYTFGGGTKLEIKR",
    "Metric": "Kd",
    "Readout unit": "nM",
    "Value reported": 0.759
  },
  {
    "Binder": "Mutation 1-53 (antibody, mouse IgG2b, kappa, V domains shown) VH: QVQLQQPGAELVRPGASVKLSCKASGSSFTNYWMNWVKQRPGQGLEWIGMIHPSESETRVNQKFKDKATLTVDKSSSTAYMQLSSLTAEDSAVYYCARSGDFYTSYFDYWGQGTTLTVSS VL: DIQLTQSPASLSASVGETVTITCRGTGNIHNYLAWYQQKQGKSPQLLVYNARTIADGVPSRFSGSGSGTQYSLKINSLQPEDFGSYYCQYFWSTYTFGGGTKLEIKR",
    "Metric": "Kd",
    "Readout unit": "nM",
    "Value reported": 0.717
  },
  {
    "Binder": "Mutation 1-21 (antibody, mouse IgG2b, kappa, V domains shown) VH: QVQLQQPGAELVRPGASVKLSCKASGTSFTNYWMNWVKQRPGQGLEWIGMIHPSESETRINQKFKDKATLTVDKSSSTAYMQLSSLTAEDSAVYYCARSGEFYTSYFDYWGQGTTLTVSS VL: DIQLTQSPASLSASVGETVTITCRGSGNVHNYLAWYQQKQGKSPQLLVYNARTIADGVPSRFSGSGSGTQYSLKINSLQPEDFGSYYCQYFWSTYTFGGGTKLEIKR",
    "Metric": "Kd",
    "Readout unit": "nM",
    "Value reported": 0.655
  },
  {
    "Binder": "Mutation 1-14 (antibody, mouse IgG2b, kappa, V domains shown) VH: QVQLQQPGAELVRPGASVKLSCKASGSSFTNYWMNWVKQRPGQGLEWIGMIHPSDSETRVNQKFKDKATLTVDKSSSTAYMQLSSLTAEDSAVYYCAKSGDFYTTYFDYWGQGTTLTVSS VL: DIQLTQSPASLSASVGETVTITCRGSGNVHNYLAWYQQKQGKSPQLLVYNAKTIADGVPSRFSGSGSGTQYSLKINSLQPEDFGSYYCQSFWSTYTFGGGTKLEIKR",
    "Metric": "Kd",
    "Readout unit": "nM",
    "Value reported": 0.488
  }
]
